assay: Rat Hepatocyte Stability (Test E); type: in vitro ADME; conditions: rat, hepatocytes, geometric mean if run multiple times
test.readout: hepatocyte CLint (µL/min/1e6 cells)
Answers are plain numbers, in µL/min/1e6 cells.

The examples below pair each entry with its known result.
[[record]]
compound = "COc1c(F)cc(O[C@H]2CC[C@@](C)(C(=O)O)CC2)cc1C(=O)N[C@@H]1[C@H]2CC[C@H](C2)[C@@H]1C(=O)NCC1(C)CCC1 [Example 374]"
test_readout = "hepatocyte CLint"
unit_info = "µL/min/1e6 cells"
obs_value = 21

[[record]]
compound = "CCC(C)(C)CNC(=O)[C@H]1CCC[C@H]1NC(=O)c1cc(O[C@H]2CC[C@@](C)(C(=O)O)CC2)c(F)cc1OC [Example 58]"
test_readout = "hepatocyte CLint"
unit_info = "µL/min/1e6 cells"
obs_value = 19

[[record]]
compound = "COc1cc(F)c(-c2ccc3c(c2)OC[C@H]3CC(=O)O)cc1C(=O)N[C@@H]1[C@H]2CC[C@H](C2)[C@@H]1C(=O)Nc1cccc(S(=O)(=O)C(F)(F)F)c1 [Example 253]"
test_readout = "hepatocyte CLint"
unit_info = "µL/min/1e6 cells"
obs_value = 8.8

[[record]]
compound = "COc1cc(F)c(-c2ccc(C3(C(=O)O)CC3)cc2)cc1C(=O)N[C@H]1[C@@H](C(=O)Nc2cccc(S(=O)(=O)C(F)(F)F)c2)[C@@H]2C=C[C@H]1C2 (racemic) [Example 288]"
test_readout = "hepatocyte CLint"
unit_info = "µL/min/1e6 cells"
obs_value = 21


Then there is this compound:
Fill in reported hepatocyte CLint for this entry: COc1cc(F)c(O[C@H]2CC[C@@](C)(C(=O)O)CC2)cc1C(=O)N[C@@H]1CCC[C@@H]1C(=O)Nc1ccc(F)c(S(F)(F)(F)(F)F)c1 [Example 352]
38

###

experiment: Rat Hepatocyte Stability (Test E); assay type: in vitro ADME; details: rat, hepatocytes, geometric mean if run multiple times
test.readout: hepatocyte CLint (µL/min/1e6 cells)
One number for each entry, in µL/min/1e6 cells.

The examples below pair each entry with its known result.
[[record]]
compound = "COc1cc(F)c(O[C@H]2CC[C@@H](C(=O)O)CC2)cc1C(=O)N[C@@H]1[C@H]2CC[C@H](C2)[C@@H]1C(=O)NC(C)C"
unit_info = "µL/min/1e6 cells"
obs_value = 38

[[record]]
compound = "COc1cc(-c2cc(C(=O)N[C@H]3[C@@H](C(=O)Nc4cccc(S(=O)(=O)C(F)(F)F)c4)[C@@H]4C=C[C@H]3C4)c(OC)cc2F)ccc1C(=O)O (racemic)"
unit_info = "µL/min/1e6 cells"
obs_value = 16


Then there is this compound:
Fill in reported hepatocyte CLint for this entry: COc1cc(C#N)c(O[C@H]2CC[C@@](C)(C(=O)O)CC2)cc1C(=O)N[C@@H]1[C@H]2CC[C@H](C2)[C@@H]1C(=O)NCC1CCC(C#N)CC1 (stereo partly drawn)
34

###

experiment: Human Plasma Protein Binding (Test B); type: in vitro ADME; conditions: fraction unbound (fu)
Could you please mark true (1) for values of Test B Human Plasma Protein Binding (% free) below 10 % free and false (0) for values at or above it?

Below are worked cases with known answers.
[[record]]
compound = "COc1cc(C#N)c(O[C@H]2CC[C@@](C)(C(=O)O)CC2)cc1C(=O)N[C@@H]1[C@H]2CC[C@H](C2)[C@@H]1C(=O)NCC1(O)CCCC1 [Example 74]"
label = "false (0)"

[[record]]
compound = "COc1cc(F)c(-c2ccc(-c3nn[nH]n3)cc2)cc1C(=O)N[C@@H]1[C@H]2CC[C@H](C2)[C@@H]1C(=O)Nc1cccc(S(=O)(=O)C(F)(F)F)c1 [Example 325]"
label = "true (1)"

[[record]]
compound = "COc1cc(F)c(-c2ncc(CCC(=O)O)s2)cc1C(=O)N[C@@H]1[C@H]2CC[C@H](C2)[C@@H]1C(=O)Nc1cccc(S(=O)(=O)C(F)(F)F)c1 [Example 243]"
label = "true (1)"


Given the entry COc1cc(C#N)c(O[C@H]2CC[C@@](C)(C(=O)O)CC2)cc1C(=O)N[C@@H]1[C@H]2CC[C@H](C2)[C@@H]1C(=O)NCC1(CC(C)C)CCC1 [Example 106] , would its reported Test B Human Plasma Protein Binding (% free) be below 10 % free?
true (1)

Given the entry COc1cc(F)c(O[C@H]2CC[C@@](C)(C(=O)O)CC2)cc1C(=O)N[C@@H]1CCC[C@@H]1C(=O)Nc1ccc(F)c(S(F)(F)(F)(F)F)c1 [Example 352] , would its reported Test B Human Plasma Protein Binding (% free) be below 10 % free?
true (1)

Given the entry COc1cc(C#N)c(O[C@H]2CC[C@@](C)(C(=O)O)CC2)cc1C(=O)N[C@@H]1[C@H]2CC[C@H](C2)[C@@H]1C(=O)NCC1(F)CCC1 [Example 94] , would its reported Test B Human Plasma Protein Binding (% free) be below 10 % free?
false (0)

###

experiment: Solubility (Test F); type: physicochemical; settings: arithmetic mean if run multiple times
For each of the compounds below, state its solubility.
Answers are plain numbers, in µM.

The examples below pair each entry with its known result.
[[record]]
compound = "COc1cc(F)c(O[C@H]2CC[C@@H](C(=O)O)CC2)cc1C(=O)N[C@@H]1[C@H]2CC[C@H](C2)[C@@H]1C(=O)Nc1ccc(S(F)(F)(F)(F)F)cc1 [Example 183]"
obs_value = 50

[[record]]
compound = "COc1cc(Cl)c(O[C@H]2CC[C@@](C)(C(=O)O)CC2)cc1C(=O)N[C@@H]1[C@H]2CC[C@H](C2)[C@@H]1C(=O)NCC(C)(C)C(F)(F)F [Example 409]"
obs_value = 960

[[record]]
compound = "COc1cc(C#N)c(O[C@H]2CC[C@@](C)(C(=O)O)CC2)cc1C(=O)N[C@@H]1[C@H]2CC[C@H](C2)[C@@H]1C(=O)NCC1(F)CCCC1 [Example 92]"
obs_value = 920

[[record]]
compound = "COc1cc(F)c(O[C@H]2CC[C@@](C)(C(=O)O)CC2)cc1C(=O)NC1CCOCC1C(=O)Nc1cccc(S(=O)(=O)C(F)(F)F)c1 (single isomer, unassigned) [Example 518]"
obs_value = 990


Each compound below has a reported value. Please supply its solubility.
1. COc1cc(F)c(O[C@H]2CC[C@@](C)(C(=O)O)CC2)cc1C(=O)N[C@@H]1COC[C@@H]1C(=O)Nc1cccc(S(=O)(=O)C(F)(F)F)c1 (relative stereo) [Example 561]
2. COc1cc(F)c(O[C@H]2CC[C@@](C)(C(=O)O)CC2)cc1C(=O)N[C@@H]1CCC[C@@H]1C(=O)Nc1ccc(F)c(S(F)(F)(F)(F)F)c1 [Example 352]
3. COc1cc(F)c(O[C@H]2CC[C@@H](C(=O)O)CC2)cc1C(=O)N[C@@H]1[C@H]2CC[C@H](C2)[C@@H]1C(=O)Nc1ccccc1 [Example 201]
4. CCC(C)(C)CNC(=O)[C@H]1[C@@H]2CC[C@@H](C2)[C@H]1NC(=O)c1cc(O[C@H]2CC[C@@](C)(C(=O)O)CC2)c(F)cc1OC [Example 37]

1: 930; 2: 340; 3: 940; 4: 830

###

assay: Human Liver Microsomal Stability (Test C); type: in vitro ADME; conditions: human, liver microsomes
For each of the molecules below, state its microsomal CLint.

The examples below pair each entry with its known result.
[[record]]
smiles_str = "COc1cc(F)c(O[C@H]2CC[C@@](C)(C(=O)O)CC2)cc1C(=O)Nc1ccccc1C(=O)NCC1(C)CCC1"
obs_value = "< 3 µL/min/mg"

[[record]]
smiles_str = "COc1cc(C#N)c(O[C@H]2CC[C@@](C)(C(=O)O)CC2)cc1C(=O)N[C@@H]1[C@H]2CC[C@H](C2)[C@@H]1C(=O)NCC1(OC)CC1"
obs_value = "< 3 µL/min/mg"


Then there is this molecule:
Fill in reported microsomal CLint for this entry: `COc1cc(F)c(O[C@H]2CC[C@@H](C(N)=O)CC2)cc1C(=O)N[C@@H]1[C@H]2CC[C@H](C2)[C@@H]1C(=O)Nc1ccc(F)c(C(F)(F)F)c1`
> 300 µL/min/mg

###

assay: Solubility (Test F); assay type: physicochemical; settings: arithmetic mean if run multiple times
test.readout: solubility
Kindly format the answer as number then unit.

The examples below pair each entry with its known result.
[[record]]
compound = "COc1cc(F)c(O[C@H]2CC[C@@H](C(=O)O)CC2)cc1C(=O)N[C@@H]1[C@H]2CC[C@H](C2)[C@@H]1C(=O)NCCC1CC1 [Example 176]"
obs_value = "210 µM"

[[record]]
compound = "COc1cc(F)c(O[C@H]2CC[C@@](C)(C(N)=O)CC2)cc1C(=O)N[C@@H]1[C@H]2CC[C@H](C2)[C@@H]1C(=O)NCC1(F)CCOCC1 [Example 147]"
obs_value = "1000 µM"

[[record]]
compound = "COc1cc(F)c(O[C@H]2CC[C@@H](C(=O)O)CC2)cc1C(=O)N[C@@H]1CCC[C@@H]1C(=O)Nc1ccc(F)c(C(F)(F)F)c1 [Example 492]"
obs_value = "1000 µM"

[[record]]
compound = "COc1cc(F)c(-c2ccc(/C=C/C(=O)O)nc2)cc1C(=O)N[C@@H]1[C@H]2CC[C@H](C2)[C@@H]1C(=O)Nc1cccc(S(=O)(=O)C(F)(F)F)c1 [Example 260]"
obs_value = "360 µM"


Fill in reported solubility for this entry: CCC(CC)[C@@H](C)NC(=O)[C@H]1[C@@H]2CC[C@@H](C2)[C@H]1NC(=O)c1cc(O[C@H]2CC[C@@](C)(C(=O)O)CC2)c(F)cc1OC (single isomer, unassigned) [Example 145]
870 µM

Data origin, for the record: patent US11667602B2
